# procedure_text: Inhibition of C-terminal 6His-tagged Plasmodium falciparum Gyrase B expressed in Escherichia coli

| compound | IC50 |
| --- | --- |
| CO[C@@H]1[C@@H](OC(N)=O)[C@@H](O)[C@H](Oc2ccc3c(O)c(NC(=O)c4ccc(O)c(CC=C(C)C)c4)c(=O)oc3c2C)OC1(C)C [NOVOBIOCIN] | 30 µM |

Data origin, for the record: ChEMBL document CHEMBL5500323
